# measured-target: GGTase I (substrate RhoA) (Homo sapiens, UniProt P49354+P53609)
# procedure-details: GGTase I filter-binding assay with RhoA as substrate
# condition: FIG. 15; read-out: IC50 for the inhibition of GGTase I using RhoA as a substrate
recorded-endpoint: pIC50
Give bare numbers, as −log10 of the molar value.

Solved cases below.
COC(=O)C(CC(C)C)NC(=O)c1ccc(NCc2cnc[nH]2)cc1-c1ccccc1C (stereo not shown) [GGTI-2166, reference compound] :: 6.30
COC(=O)[C@H](CC(C)C)NC(=O)c1ccc(NC[C@@H](N)CS)cc1-c1cccc2ccccc12 [GGTI-298, reference compound] :: 5.80

# return pIC50 for each item in the list
1. Cc1ccccc1S(=O)(=O)N1[C@@H](c2cccc(Cl)c2)C(C(=O)O)=CC[C@H]1c1ccc(Cl)cc1 (relative stereo) [P3-E5]
2. O=C(O)C1=CCC(c2ccc(Cl)cc2)N(S(=O)(=O)c2ccc(Cl)cc2)[C@H]1c1cccc(Cl)c1 (stereo partly shown) [P3-D9]

## Output
1: 5.15; 2: 5.30

// data source = patent US8093274B2
